Assay: Transmittance at 0.01% w/v in propylene carbonate
Format: physicochemical
measuredProperty: % Transmittance at 420 nm (%)
State the answer as a number, implicitly in %.

Some compounds with known % Transmittance at 420 nm results, for comparison:
INSERT INTO results (compound, measuredproperty, measuredvalue) VALUES
  ('CCc1cc(CC)c2sc3ccc([S+](c4ccc(C)cc4)c4ccc(C(=O)c5ccccc5)cc4)cc3c(=O)c2c1 (centres unmarked)', '% Transmittance at 420 nm', 83.3),
  ('CC(C)c1ccc2sc3ccc(-[s+]4c5ccccc5c(=O)c5cc(C(C)C)ccc54)cc3c(=O)c2c1 (centres unmarked)', '% Transmittance at 420 nm', 90.3),
  ('CC(C)c1ccc2c(c1)c(=O)c1ccccc1[s+]2-c1ccc(-c2ccccc2)cc1 (centres unmarked) [Omnicat 550, reference compound]', '% Transmittance at 420 nm', 99.1),
  ('Cc1ccc([S+](c2ccc(C(=O)c3ccccc3)cc2)c2ccc3sc4ccc(C(C)C)cc4c(=O)c3c2)cc1 (centres unmarked)', '% Transmittance at 420 nm', 94.3);

Turning to the following compound.
Kindly note the recorded % Transmittance at 420 nm for CCCOc1ccc(Cl)c2c(=O)c3cc(-[s+]4c5ccccc5c(=O)c5c(Cl)ccc(OCCC)c54)ccc3sc12 (centres unmarked) , which is 64.8

----------
Assay: Real time FT-IR curing performance at 405 nm in UViCure S105/TMPTA (1:1)
Conditions: LED @405 nm (110 mW/cm^2), 20 μm thickness, laminated
measuredProperty: Epoxy Polymerization rate Rp/[M0]*100 (s⁻¹)
State the answer as a number, implicitly in s⁻¹.

INSERT INTO results (molecule, measuredvalue) VALUES
  ('Cc1ccc([S+](c2ccc(C(=O)c3ccccc3)cc2)c2ccc3sc4ccc(C(C)C)cc4c(=O)c3c2)cc1 (stereo not drawn)', 6.12),
  ('CCc1cc(CC)c2sc3ccc([S+](c4ccc(C)cc4)c4ccc(C(=O)c5ccccc5)cc4)cc3c(=O)c2c1 (stereo not drawn)', 6.29),
  ('CC(C)c1ccc2sc3ccc(-[s+]4c5ccccc5c(=O)c5cc(C(C)C)ccc54)cc3c(=O)c2c1 (stereo not drawn)', 8.12),
  ('CCc1cc(CC)c2sc3ccc(-[s+]4c5ccccc5c(=O)c5cc(CC)cc(CC)c54)cc3c(=O)c2c1 (stereo not drawn)', 6.46),
  ('CCCOc1ccc(Cl)c2c(=O)c3cc([S+](c4ccc(C)cc4)c4ccc(C(=O)c5ccccc5)cc4)ccc3sc12 (stereo not drawn)', 2.43);

Kindly note the recorded Epoxy Polymerization rate Rp/[M0]*100 for CCCOc1ccc(Cl)c2c(=O)c3cc(-[s+]4c5ccccc5c(=O)c5c(Cl)ccc(OCCC)c54)ccc3sc12 (stereo not drawn) , which is 3.87

----------
Assay: Real time FT-IR curing performance in UViCure S105 at 365 and 385 nm
Settings: LED @365 nm (120 W/cm^2), UViCure S105, 20 μm thickness, under air; PI loading 1 wt % (Omnicat BL 550 4 wt %; Speedcure 938/CPTX 1/0.5 wt %)
The threshold is 2 s⁻¹. Values of Polymerization rate Rp/[M0]*100 beneath it are tagged yes; values meeting or exceeding it are tagged no.

INSERT INTO assay_data (molecule, classname) VALUES
  ('COc1ccccc1-c1cc(-[s+]2c3ccccc3c(=O)c3cc(C(C)C)ccc32)ccc1OC (centres unmarked)', 'no'),
  ('COc1ccc(-c2ccc(-[s+]3c4ccccc4c(=O)c4cc(C(C)C)ccc43)cc2)cc1 (centres unmarked)', 'no'),
  ('CC(C)c1ccc2c(c1)c(=O)c1ccccc1[s+]2-c1ccc(Oc2ccccc2)cc1 (centres unmarked)', 'no'),
  ('Cc1ccc([S+](c2ccc(C(=O)c3ccccc3)cc2)c2ccc3sc4ccc(C(C)C)cc4c(=O)c3c2)cc1 (centres unmarked)', 'no');

Please indicate whether the reported Polymerization rate Rp/[M0]*100 of COC(=O)COc1ccc2sc3ccc(-[s+]4c5ccccc5c(=O)c5cc(OCC(=O)OC)ccc54)cc3c(=O)c2c1 (centres unmarked) is strictly below 2 s⁻¹.
yes
